System: Candida albicans
Test: Antifungal activity against Candida albicans Y0109 after 24 hrs by micro-broth dilution method
Format: functional
Conditions: Y0109, 24 h
Could you please report measured log10 MIC for the items listed next?
Record value = log10 of MIC given in µg/mL.

q: // log10 MIC lookup, key: Cc1ccc(Cn2cc(CN(CC(O)(Cn3cncn3)c3ccc(F)cc3F)C3CC3)nn2)cc1 (stereo not given)
a: -1.81

q: // log10 MIC lookup, key: C[C@@H]1[C@H](O)[C@@H](C)/C=C/C=C/C=C/C=C/C=C/C=C/C=C/[C@H](O[C@@H]2O[C@H](C)[C@@H](O)[C@H](N)[C@@H]2O)C[C@@H]2O[C@](O)(C[C@@H](O)C[C@@H](O)[C@H](O)CC[C@@H](O)C[C@@H](O)CC(=O)O[C@H]1C)C[C@H](O)[C@H]2C(=O)O
a: 0.60

q: // log10 MIC lookup, key: CC(C)N(Cc1cn(Cc2ccccc2Cl)nn1)CC(O)(Cn1cncn1)c1ccc(F)cc1F (stereo not given)
a: -2.41

q: // log10 MIC lookup, key: CC(C)N(Cc1cn(Cc2ccccc2F)nn1)CC(O)(Cn1cncn1)c1ccc(F)cc1F (stereo not given)
a: -1.81

q: // log10 MIC lookup, key: Cc1cccc(Cn2cc(CN(CC(O)(Cn3cncn3)c3ccc(F)cc3F)C3CC3)nn2)c1 (stereo not given)
a: -1.81

q: // log10 MIC lookup, key: O=[N+]([O-])c1ccc(Cn2cc(CN(CC(O)(Cn3cncn3)c3ccc(F)cc3F)C3CC3)nn2)cc1 (stereo not given)
a: -0.60

q: // log10 MIC lookup, key: OC(CN(Cc1cn(Cc2ccccc2Br)nn1)C1CC1)(Cn1cncn1)c1ccc(F)cc1F (stereo not given)
a: 1.20

q: // log10 MIC lookup, key: N#Cc1ccccc1Cn1cc(CN(CC(O)(Cn2cncn2)c2ccc(F)cc2F)C2CC2)nn1 (stereo not given)
a: 1.20

q: // log10 MIC lookup, key: Cc1ccccc1Cn1cc(CN(CC(O)(Cn2cncn2)c2ccc(F)cc2F)C2CC2)nn1 (stereo not given)
a: -1.81

====

System: Aspergillus fumigatus
Assay: Antifungal activity against Aspergillus fumigatus by micro-broth dilution method
Type: functional
Could you please report measured MIC for the items listed next?

q: // MIC lookup, key: OC(CN(Cc1cn(Cc2ccc(Cl)cc2)nn1)C1CC1)(Cn1cncn1)c1ccc(F)cc1F (stereo not given)
a: > 64 µg/mL

q: // MIC lookup, key: OC(CN(Cc1cn(Cc2cccc(Br)c2)nn1)C1CC1)(Cn1cncn1)c1ccc(F)cc1F (stereo not given)
a: > 64 µg/mL

q: // MIC lookup, key: CC(C)N(Cc1cn(Cc2ccccc2Br)nn1)CC(O)(Cn1cncn1)c1ccc(F)cc1F (stereo not given)
a: 16 µg/mL

q: // MIC lookup, key: OC(Cn1cncn1)(Cn1cncn1)c1ccc(F)cc1F [FLUCONAZOLE]
a: > 64 µg/mL

q: // MIC lookup, key: C[C@@H](c1ncncc1F)[C@](O)(Cn1cncn1)c1ccc(F)cc1F [VORICONAZOLE]
a: < 0.125 µg/mL

====

Test system: Cryptococcus neoformans
Test: Antifungal activity against Cryptococcus neoformans after 72 hrs by micro-broth dilution method
Assay type: functional
QUANTITY NAME: MIC (µg/mL)
A number alone suffices; assume µg/mL.

q: // MIC lookup, key: Cc1cccc(Cn2cc(CN(CC(O)(Cn3cncn3)c3ccc(F)cc3F)C3CC3)nn2)c1 (centres undefined)
a: 2

q: // MIC lookup, key: OC(CN(Cc1cn(Cc2ccccc2F)nn1)C1CC1)(Cn1cncn1)c1ccc(F)cc1F (centres undefined)
a: 8

q: // MIC lookup, key: CC(C)N(Cc1cn(Cc2cccc(Br)c2)nn1)CC(O)(Cn1cncn1)c1ccc(F)cc1F (centres undefined)
a: 1

q: // MIC lookup, key: CC(C)N(Cc1cn(Cc2cccc(F)c2)nn1)CC(O)(Cn1cncn1)c1ccc(F)cc1F (centres undefined)
a: 4

q: // MIC lookup, key: OC(CN(Cc1cn(Cc2ccc(F)cc2)nn1)C1CC1)(Cn1cncn1)c1ccc(F)cc1F (centres undefined)
a: 16

q: // MIC lookup, key: OC(CN(Cc1cn(Cc2cccc(Br)c2)nn1)C1CC1)(Cn1cncn1)c1ccc(F)cc1F (centres undefined)
a: 0.25

q: // MIC lookup, key: OC(CN(Cc1cn(Cc2cccc(Cl)c2)nn1)C1CC1)(Cn1cncn1)c1ccc(F)cc1F (centres undefined)
a: 64

q: // MIC lookup, key: CC(=O)N1CCN(c2ccc(OCC3COC(Cn4ccnc4)(c4ccc(Cl)cc4Cl)O3)cc2)CC1 (centres undefined)
a: 0.5

q: // MIC lookup, key: CC(C)N(Cc1cn(Cc2ccc(C#N)cc2)nn1)CC(O)(Cn1cncn1)c1ccc(F)cc1F (centres undefined)
a: 16
